Test system: TPA-induced ornithine decarboxylase (ODC) activity in T24 cells
Test: Inhibition of TPA-induced ornithine decarboxylase (ODC) activity in T24 cells
Type: cell-based
Conditions: Homo sapiens, T-24; T24 cells; TPA 200 nM; 6 h incubation; read-out: IC50, inhibition of TPA-induced ODC activity
Documented pIC50 across a set of compounds
Scale note: pIC50 = -log10(concentration in M).

[[record]]
compound = "CC1=CC(=O)c2ccccc2C1=O [menadione]"
numeric_result = 5.08


--- query ---
Would you mind telling me what pIC50 value was observed for O=c1cc(-c2ccc(O)cc2)oc2cc(O)cc(O)c12 [apigenin] ?
5.22
